target: jack bean urease (Sigma, Type IX) (Canavalia ensiformis, UniProt P07374); construct: purchased Sigma Type IX; experiment: Jack bean urease inhibition (modified Bremner procedure, homogeneous solution); type: biochemical; details: Table II; 10^-6 M inhibitor; jack bean urease; read-out: % Inhibition at Specific Inhibitor Concentration 10^-6 M
Sequence (P07374 whole entry, looked up): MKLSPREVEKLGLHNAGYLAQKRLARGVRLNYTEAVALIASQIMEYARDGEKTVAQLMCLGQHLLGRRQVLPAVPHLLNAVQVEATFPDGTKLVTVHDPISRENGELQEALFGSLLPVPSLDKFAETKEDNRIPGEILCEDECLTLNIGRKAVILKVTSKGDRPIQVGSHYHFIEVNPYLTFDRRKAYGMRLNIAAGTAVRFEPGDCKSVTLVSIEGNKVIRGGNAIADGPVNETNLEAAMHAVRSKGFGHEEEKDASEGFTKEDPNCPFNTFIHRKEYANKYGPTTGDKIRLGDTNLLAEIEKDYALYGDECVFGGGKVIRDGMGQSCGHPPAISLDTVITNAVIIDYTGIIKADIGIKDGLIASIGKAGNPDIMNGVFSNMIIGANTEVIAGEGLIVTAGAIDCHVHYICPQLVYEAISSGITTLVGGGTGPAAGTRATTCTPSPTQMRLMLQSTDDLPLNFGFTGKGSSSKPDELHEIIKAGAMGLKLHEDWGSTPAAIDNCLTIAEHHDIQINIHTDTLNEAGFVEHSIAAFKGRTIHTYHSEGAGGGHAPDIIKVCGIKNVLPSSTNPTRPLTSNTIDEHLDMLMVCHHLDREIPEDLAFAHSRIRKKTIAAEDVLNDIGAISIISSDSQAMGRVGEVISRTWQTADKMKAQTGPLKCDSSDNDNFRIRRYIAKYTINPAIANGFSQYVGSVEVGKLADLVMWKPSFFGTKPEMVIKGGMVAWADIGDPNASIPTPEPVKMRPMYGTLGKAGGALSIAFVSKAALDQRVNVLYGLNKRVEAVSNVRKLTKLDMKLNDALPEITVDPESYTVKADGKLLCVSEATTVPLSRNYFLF
Documented inhibition at 1 µM across a set of compounds
Observation Type: inhibition at 1 µM (%)

[[record]]
compound = "NP(N)(=O)NC(=O)CCl [Example II, N-(Diaminophosphinyl)-2-chloroacetamide]"
assay_result = 100

[[record]]
compound = "NP(N)(=O)NC(=O)C(Cl)Cl"
assay_result = 100

[[record]]
compound = "N#CCC(=O)NP(N)(N)=O [Example V, N-(Diaminophosphinyl)-2-Cyanoacetamide]"
assay_result = 56

[[record]]
compound = "NP(N)(=O)NC(=O)C(F)(F)F"
assay_result = 100

